Result type: CO2 permeability (Barrer)
One number for each entry, in Barrer.

Compound	Reading unit	CO2 permeability
*C(=C(*)c1ccc(-c2ccc([Si](C)(C)C)cc2)cc1)c1ccccc1 (repeat unit)	Barrer	2200

# batch: return CO2 permeability for each of the 2 compounds below
1. *CC(*)C(=O)OCC(F)(F)C(F)(F)C(F)(F)C(F)(F)C(F)(F)C(F)(F)C(F)(F)F (repeat unit)
2. *C(=C(*)c1ccc2c(c1)C(C)(C)CC2(C)C)c1ccccc1 (repeat unit)

result:
[520, 38700]

query: Using known records, supply CO2 permeability for *C(=C(*)c1ccc(C(C)(C)C)cc1)c1ccccc1 (repeat unit)
result: 6200

* * *

Exercise: for every item that follows, state its recorded H2 permeability.
Answers are plain numbers, in Barrer.

Check out these entries, answers already filled in.
Molecule	Measured value
*OC(=O)Oc1c(Br)cc(C(C)(C)c2cc(Br)c(*)c(Br)c2)cc1Br (repeat unit)	43
*Cc1ccc(C*)c(C#N)c1 (repeat unit)	1.78
*Cc1ccc(C*)c(CC)c1 (repeat unit)	4.31

Give H2 permeability for each of the items listed below.
1. *c1ccc(Oc2cccc(-n3c(=O)c4cc5c(=O)n(*)c(=O)c5cc4c3=O)c2)cc1 (repeat unit)
2. *c1ccc(C(C)(C)c2cccc(N3C(=O)c4ccc(C(c5ccc6c(c5)C(=O)N(*)C6=O)(C(F)(F)F)C(F)(F)F)cc4C3=O)c2)cc1 (repeat unit)
3. *C/C=C(/Cl)C* (repeat unit)
4. *c1ccc(-c2cc(C)c(-c3ccc(*)cc3C)cc2C)c(C)c1 (repeat unit)

result:
1: 5.92; 2: 38.2; 3: 20.6; 4: 72

Each molecule below has a recorded value; state its H2 permeability.
1. *c1c(C)cc(C)c(N2C(=O)c3ccc(S(=O)(=O)c4ccc5c(c4)C(=O)N(*)C5=O)cc3C2=O)c1C (repeat unit)
2. *Oc1ccc(S(=O)(=O)c2ccc(Oc3ccc4ccc(*)cc4c3)cc2)cc1 (repeat unit)

result:
1: 47.1; 2: 8.15

Your task in this section: give H2 permeability for each listed record.
1. *c1ccc(-c2ccc(N3C(=O)c4ccc([Si](C)(C)c5ccc6c(c5)C(=O)N(*)C6=O)cc4C3=O)c(C)c2)cc1C (repeat unit)
2. *c1ccc(Oc2ccc(C(c3ccc(Oc4ccc(-n5c(=O)c6cc7c(=O)n(*)c(=O)c7cc6c5=O)cc4C(F)(F)F)cc3)(C(F)(F)F)C(F)(F)F)cc2)c(C(F)(F)F)c1 (repeat unit)
3. *C(=C(*)c1ccc2c(c1)C(C)(C)CC2(C)C)c1ccccc1 (repeat unit)
4. *c1ccc(S(=O)(=O)c2ccc(N3C(=O)c4ccc(-c5ccc6c(c5)C(=O)N(*)C6=O)cc4C3=O)cc2)cc1 (repeat unit)

result:
[10.9, 50.4, 24800, 11.3]

* * *

Result type: log10(H2 permeability) (log10 of the value in Barrer)
Form field - Quantity: H2 permeability; Unit: Barrer; Scale: log10

Example entries and their recorded answers appear below.
Compound	Result type	Measured value
*Oc1ccc(Oc2ccc3c(c2)-c2nc4cc(Oc5ccc6nc7n(c6c5)C(=O)c5cc(*)ccc5-7)ccc4n2C3=O)cc1 (repeat unit)	log10(H2 permeability)	0.73
*c1c(C)c(C)c(N2C(=O)c3ccc(Oc4cc(C(C)(C)C)cc(C)c4Oc4ccc5c(c4)C(=O)N(*)C5=O)cc3C2=O)c(C)c1C (repeat unit)	log10(H2 permeability)	2.04
*c1c(C)c(C)c(N2C(=O)c3ccc(Oc4cc(C)ccc4Oc4ccc5c(c4)C(=O)N(*)C5=O)cc3C2=O)c(C)c1C (repeat unit)	log10(H2 permeability)	1.61
*Oc1cc(C)c(C2(c3cc(C)c(Oc4ccc(S(=O)(=O)c5ccc(*)cc5)cc4)cc3C)OC(=O)c3ccccc32)cc1C (repeat unit)	log10(H2 permeability)	1.23
*Oc1ccc(C(c2ccc(Oc3ccc(C(=O)c4ccc(C(c5ccc(C(=O)c6ccc(*)cc6)cc5)(C(F)(F)F)C(F)(F)F)cc4)cc3)cc2)(C(F)(F)F)C(F)(F)F)cc1 (repeat unit)	log10(H2 permeability)	1.50
*c1ccc2c(c1)C(=O)N(c1ccc(Oc3ccc(N4C(=O)c5ccc(-c6nc7ccc(Cc8ccc9nc(*)oc(=O)c9c8)cc7c(=O)o6)cc5C4=O)cc3)cc1)C2=O (repeat unit)	log10(H2 permeability)	0.41
*/C(C)=C(/*)[Si](C)(C)CCCCCCCC (repeat unit)	log10(H2 permeability)	1.67
*C(=C(*)c1ccc2c(c1)C1(CC1)c1ccccc1-2)c1ccc([Si](C)(C)C)cc1 (repeat unit)	log10(H2 permeability)	3.28

For every record below, what is its log10(H2 permeability)?
1. *Oc1cc2c(cc1O*)C1(c3cc(C(C)(C)C)ccc3-2)c2cc(C(C)(C)C)ccc2-c2cc3c(cc21)Oc1c(C#N)c(*)c(*)c(C#N)c1O3 (repeat unit)
2. *CC(*)c1ccccc1 (repeat unit)

result:
1. 3.71
2. 1.42
